// data source = ChEMBL document CHEMBL2040753

- subject_of_test: UniProt:P52895
- Sequence (P52895 whole entry): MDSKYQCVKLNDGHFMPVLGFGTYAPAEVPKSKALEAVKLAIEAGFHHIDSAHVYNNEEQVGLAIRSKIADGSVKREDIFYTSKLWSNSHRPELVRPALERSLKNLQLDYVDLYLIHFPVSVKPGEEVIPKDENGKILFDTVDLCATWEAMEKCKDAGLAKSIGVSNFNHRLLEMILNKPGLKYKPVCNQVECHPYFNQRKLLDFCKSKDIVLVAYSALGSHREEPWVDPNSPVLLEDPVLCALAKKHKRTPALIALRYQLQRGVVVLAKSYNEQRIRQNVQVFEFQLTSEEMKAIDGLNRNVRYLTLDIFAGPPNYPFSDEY
- experiment_notes: Inhibition of recombinant AKR1C2 assessed as NADP+ dependent oxidation of S-tetralol by fluorescence assay
Flag rule - IC50 less than 7 µM flags met; the remaining entries get not met.

1) O=C(O)c1cccc(Nc2cccc(C(=O)O)c2)c1 | not met
2) O=C(O)c1ccccc1Nc1cccc([N+](=O)[O-])c1 | met
3) CC(C)(C)c1ccc(Nc2ccccc2C(=O)O)cc1 | met
4) CC(=O)c1ccc(Nc2cc(C)cc(C)c2)c(C(=O)O)c1 | not met
5) COc1ccccc1Nc1ccc(C(=O)O)cc1 | not met
6) CC(=O)c1ccc(Nc2cccc(C)c2)c(C(=O)O)c1 | met
7) CC(=O)c1ccc(Nc2ccc(C(F)(F)F)cc2)c(C(=O)O)c1 | met
8) COc1ccc(C(=O)O)c(Nc2cccc(C(F)(F)F)c2)c1 | met
9) COc1cccc(Nc2cc(OC)ccc2C(=O)O)c1 | met
10) O=C(O)c1ccc(Nc2ccccc2C(=O)O)cc1 | met
11) COc1ccc(C(=O)O)c(Nc2ccc(C(C)=O)cc2)c1 | met
12) O=C(O)c1ccc(Nc2ccc(Br)cc2)cc1 | not met
13) Cc1ccc(Nc2ccc(C(=O)O)cc2)cc1 | not met
14) COc1ccc(C(=O)O)c(Nc2cccc([N+](=O)[O-])c2)c1 | met
15) CC(=O)c1ccc(Nc2cccc(Cl)c2)c(C(=O)O)c1 | met
16) CC(=O)c1ccccc1Nc1cccc(C(=O)O)c1 | not met
17) O=C(O)c1ccc(Nc2ccc(C(=O)O)cc2)cc1 | met
18) O=C(O)c1cccc(Nc2cc(C(F)(F)F)cc(C(F)(F)F)c2)c1 | not met

* * *

- subject_of_test: Aldo-keto reductase family 1 member C3 (Homo sapiens)
- Sequence (P42330 whole entry): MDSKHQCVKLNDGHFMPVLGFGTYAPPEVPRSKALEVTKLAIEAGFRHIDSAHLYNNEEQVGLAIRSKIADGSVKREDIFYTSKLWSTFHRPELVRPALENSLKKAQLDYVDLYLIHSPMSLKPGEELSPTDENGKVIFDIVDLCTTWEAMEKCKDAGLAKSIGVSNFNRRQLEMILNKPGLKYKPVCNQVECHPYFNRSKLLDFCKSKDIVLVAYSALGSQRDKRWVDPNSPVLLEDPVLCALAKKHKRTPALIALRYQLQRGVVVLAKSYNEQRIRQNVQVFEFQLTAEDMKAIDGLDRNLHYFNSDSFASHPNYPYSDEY
- experiment_notes: Inhibition of recombinant AKR1C3 assessed as NADP+ dependent oxidation of S-tetralol by fluorescence assay
Flag rule - IC50 less than 1000 nM flags criterion met; the remaining entries get criterion not met.

1) CC(=O)c1ccc(Nc2ccccc2C(F)(F)F)c(C(=O)O)c1 | criterion not met
2) COc1cc(Nc2ccccc2C(=O)O)cc(OC)c1 | criterion met
3) CC(=O)c1ccccc1Nc1cccc(C(=O)O)c1 | criterion met
4) CC(=O)c1ccc(Nc2ccc([N+](=O)[O-])cc2)c(C(=O)O)c1 | criterion not met
5) COc1cccc(Nc2cccc(C(=O)O)c2)c1 | criterion not met
